Tested on: L1210 leukemia ip in BDF1 mice, survival T/C
Assay: NCI In Vivo Anticancer Drug Screen. Data for tumor model L1210 Leukemia (intraperitoneal) in B6D2F1 (BDF1) mice
Settings: endpoint: mean survival time; dose: 400.0 mg/kg/injection; schedule: Q01DX001 (ip); vehicle: other; higher = longer survival
Toxic doses and inconclusive results are not listed.
Readout Name: T/C

cpd_smiles=O=C(CCCC(=O)N/N=C/c1cccc(Cl)c1)N/N=C\c1cccc(Cl)c1 assay_system="L1210 leukemia ip in BDF1 mice, survival T/C" measured_value="88 % of control"
cpd_smiles=O=c1[nH][nH]c(=O)c2ccccc12 assay_system="L1210 leukemia ip in BDF1 mice, survival T/C" measured_value="103 % of control"
cpd_smiles=C[C@H]1CCC/C=C/[C@@H]2C[C@H](O)C[C@H]2[C@H](O)/C=C/C(=O)O1 assay_system="L1210 leukemia ip in BDF1 mice, survival T/C" measured_value="93 % of control"
cpd_smiles=Oc1ccc2c(c1)CCc1cn[nH]c1-2 assay_system="L1210 leukemia ip in BDF1 mice, survival T/C" measured_value="98 % of control"
cpd_smiles=CN(C)c1ccc(C(=O)c2ccc(N(C)C)c(N)c2)cc1N assay_system="L1210 leukemia ip in BDF1 mice, survival T/C" measured_value="101 % of control"
